# measurement_target: UniProt:Q14694
# test_protocol: ubiquitin-specific protease 10 DUB inhibitors, concentration-effect, biochemical, verification of primary screen actives (AID 1645863);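 also: potency values describe inhibition of USP10 cleavage of a fluorogenic ubiquitin substrate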
# condition_context: USP10 deubiquitinase enzymatic assay
Calls of active or inactive are those of the source. No rule for the calls is given here.
Labels: true (1) (active), false (0) (inactive)

compound	measurement_target	group_label
O=C(Nc1ccc(NC(=O)c2ccccc2O)cc1)Nc1ccc(OCc2ccccc2)cc1	UniProt:Q14694	false (0)
CC(C)=CCc1c(O)cc2c(c1C)OC(=O)c1c(C)c(Cl)c(O)c(CO)c1O2	UniProt:Q14694	true (1)
COc1ccc(OC)c(NC(=O)c2sc(-c3ccccc3)nc2C)c1	UniProt:Q14694	true (1)
Cc1nc2c(c(C)c1CCC(=O)Nc1ccccc1F)c(=O)n(C)c(=O)n2C	UniProt:Q14694	false (0)
COc1ccc(Cl)cc1NC(=O)c1cc(-c2ccccn2)n[nH]1	UniProt:Q14694	true (1)
Cc1nnc(NC(=O)C2CCN(c3ccc(S(N)(=O)=O)cc3[N+](=O)[O-])CC2)o1	UniProt:Q14694	true (1)
Cc1ccc([N+](=O)[O-])cc1S(=O)(=O)Nc1cc2sc(=O)oc2c2ccccc12	UniProt:Q14694	false (0)
Cc1c(Cl)cccc1NC(=O)Cn1cc(C(=O)C2CC2)c2ccccc21	UniProt:Q14694	false (0)
CCC1OC(O)(C(C)C(O)C(C)C2OC(=O)/C(C)=C/C(C)=CC(C)C(O)C(C)C/C(C)=C/C=C/C2OC)CC(OC(=O)/C=C/C(=O)NC2=C(O)CCC2=O)C1C (centres undefined)	UniProt:Q14694	true (1)

----------
# measurement_target: Ubiquitin carboxyl-terminal hydrolase 10 (Homo sapiens)
# test_protocol: ubiquitin-specific protease 10 DUB inhibitors, concentration-effect, biochemical, verification of primary screen actives (AID 1645863);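 also: potency values describe inhibition of USP10 cleavage of a fluorogenic ubiquitin substrate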
# condition_context: USP10 deubiquitinase enzymatic assay
Activity calls are given as the source filed them. No rule for the calls is given here.
Outcome codes: active, inactive

> print(dat)
                                    compound  group.label
 1  CC(=O)[C@H]1c2c(c(O)c3c(O)cccc3c2-c2c3c(c(O)c4c(O)cccc24)C(=O)C[C@](C)(O)[C@H]3C(C)=O)C(=O)C[C@]1(C)O       active
 2  O=C(CSc1nnc2c3ccccc3nc(-c3ccco3)n12)N1CCCc2ccccc21       active
 3  CN1CC(c2ncn[nH]2)c2cc(C(=O)NCc3cccc(F)c3)ccc21 (centres undefined)     inactive
 4  COc1cccc(NC(=O)c2oc3ccccc3c2NC(=O)COc2cccc(OC)c2)c1     inactive
 5  COC(=O)c1ccccc1NC(=O)Cn1c(=O)n(CCCC(=O)NCc2ccco2)c(=O)c2ccccc21       active
 6  CCCCCCCc1cc(OC(=O)c2c(CCCCCCC)cc(O)cc2O[C@@H]2O[C@H](CO)[C@H](O)[C@H](O)[C@H]2O)cc(O)c1C(=O)O       active
 7      O=C(c1ccc(Cl)cc1)N(c1ccccn1)C1CCCCC1     inactive
 8  CCn1cc2c(n1)c(=O)n(Cc1ccccc1)c(=O)n2CC(=O)NCc1ccc(C)cc1     inactive
 9  Cc1ccc(S(=O)(=O)N2CCC3(CC2)OC(=O)Nc2ccccc23)cc1     inactive
10  Cn1c(=O)n([C@@H](Cc2ccccc2)C(=O)N[C@@H](C(=O)O)c2ccc(O)cc2)c(=O)c2ccccc21     inactive
11         CCOc1ncccc1C(=O)Nc1ccnn1Cc1ccccc1     inactive
12  Cc1ccc2cc(CNc3ccccc3)c(=O)n(CC(=O)Nc3ccccc3C)c2c1     inactive
13  COc1ccc2c(c1)CCc1c-2n[nH]c1C(=O)Nc1cc(C)on1     inactive
14  O=C(OC1CSc2nc3ccccc3n2C1)c1ccc([N+](=O)[O-])o1 (centres undefined)       active
15  CC(C)=CCc1c2c(c3occ(-c4ccc(O)c(O)c4)c(=O)c3c1O)C=CC(C)(C)O2       active
16  COc1ccccc1CNC(=O)CCCCn1c(=O)c2ccccc2n(Cc2ccc(C)cc2)c1=O       active
17  O=C(c1cnccn1)N1CC[C@@H]2CNS(=O)(=O)[C@@H]2CC1     inactive
18  O=C(CN1CC=C(c2ccccc2)CC1)Nc1ccc(S(=O)(=O)N2CCOCC2)cc1     inactive
19  Cc1ccc(-c2nc3c(c(SCC(=O)c4ccccc4)n2)COC(C)(C)C3)cc1     inactive
20  CCCc1cc(=O)n2[nH]c(COc3ccccc3)c(-c3ccccc3)c2n1       active
21  COc1ccc(NC(=O)CNC(=O)c2ccc3nc(-n4cccc4)sc3c2)cc1     inactive
22  Cc1cccc(NC(=O)Nc2ccc(C)n(CC(=O)Nc3ccc(C)c(C)c3)c2=O)c1     inactive
23  COc1cc2c(cc1OC)-c1cc(Nc3ccc(Br)cc3)nc(=O)n1CC2       active
24        C/C=C/C=C/[C@@H]1Cc2cc(O)cc(O)c2O1       active
25  COc1ccc2[nH]c(=O)c(CN(C)C(=O)c3ccc([N+](=O)[O-])cc3)cc2c1     inactive
26  Cc1ccc(C(=O)c2cn(CC(=O)Nc3ccccc3)c3ccc(C)cc3c2=O)cc1     inactive
27  O=C(Cn1c(=O)n(CC2CCC(C(=O)NCCc3ccccc3)CC2)c(=O)c2ccccc21)NCc1ccco1 (centres undefined)       active
28  Cc1ccc(Nc2nc(Nc3cccc(F)c3)nc3nccnc23)c(C)c1     inactive
29  Cc1cc(Nc2cccc(Cl)c2)n2nc(-c3cccnc3)nc2n1     inactive
30  Cc1nnc2ccc(-c3ccc(NC(=O)c4ccc(Br)o4)cc3)nn12     inactive
31  COc1cc(O)cc2c1C(=O)OC(C)CCCCCCC2 (centres undefined)       active
32  CCOc1ccc2c(c1)c(=O)c(C(=O)c1ccc(C)cc1)cn2CC(=O)Nc1ccc(C)cc1     inactive
33  Cc1ccc(NC(=O)Nc2nnc(CC(=O)NCc3ccccc3)s2)cc1F     inactive
34  CNc1nc2c(c(=O)n1C)CN(C(=O)Nc1cccc3ccccc13)CC2     inactive
35  CC(C)(C)C(=O)C1C2C(=O)N(c3ccc4c(c3)OCO4)C(=O)C2C2c3ccccc3C=CN12 (centres undefined)     inactive
36  NC(=O)c1nc(-c2cccnc2)nc2c1[nH]c(=O)n2-c1ccc2c(c1)OCO2     inactive
37  COc1ccc(-c2cc3c(=O)n(CC(=O)Nc4ccccc4C)ccn3n2)cc1     inactive
38  O=C(Cn1c(=O)n(-c2ccc(Cl)cc2)c(=O)c2c3c(sc21)CCCC3)NCC1CCCO1 (centres undefined)     inactive
39  O=c1[nH]c(C2CCN(S(=O)(=O)c3ccc(S(=O)(=O)NC4CCCCC4)cc3)CC2)nc2c1nnn2Cc1ccc(F)cc1       active

----------
# measurement_target: Ubiquitin carboxyl-terminal hydrolase 10 (Homo sapiens) (UniProt Q14694)
# Sequence (Q14694 whole entry, looked up): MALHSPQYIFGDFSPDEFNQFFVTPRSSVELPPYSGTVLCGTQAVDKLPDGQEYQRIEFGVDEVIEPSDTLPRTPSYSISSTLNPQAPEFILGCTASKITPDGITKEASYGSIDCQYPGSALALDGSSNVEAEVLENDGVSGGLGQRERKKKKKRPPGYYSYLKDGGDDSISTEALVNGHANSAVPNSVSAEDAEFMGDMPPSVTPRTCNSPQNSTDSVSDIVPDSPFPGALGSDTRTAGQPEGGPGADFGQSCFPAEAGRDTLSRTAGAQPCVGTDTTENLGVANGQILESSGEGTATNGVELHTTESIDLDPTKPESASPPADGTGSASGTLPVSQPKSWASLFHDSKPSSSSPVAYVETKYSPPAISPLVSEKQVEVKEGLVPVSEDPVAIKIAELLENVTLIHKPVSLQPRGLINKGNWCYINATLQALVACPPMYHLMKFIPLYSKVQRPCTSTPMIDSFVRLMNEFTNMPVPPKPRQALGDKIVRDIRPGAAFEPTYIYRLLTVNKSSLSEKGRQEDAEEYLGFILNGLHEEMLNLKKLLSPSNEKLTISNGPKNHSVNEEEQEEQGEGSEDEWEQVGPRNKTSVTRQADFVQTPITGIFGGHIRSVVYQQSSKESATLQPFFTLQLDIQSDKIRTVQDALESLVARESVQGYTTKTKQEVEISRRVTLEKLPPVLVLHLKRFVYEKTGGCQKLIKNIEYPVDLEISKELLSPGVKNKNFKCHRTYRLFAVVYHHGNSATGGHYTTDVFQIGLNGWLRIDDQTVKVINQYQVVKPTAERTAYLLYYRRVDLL
# test_protocol: ubiquitin-specific protease 10 DUB inhibitors, concentration-effect, biochemical, verification of primary screen actives (AID 1645863);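 also: potency values describe inhibition of USP10 cleavage of a fluorogenic ubiquitin substrate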
# condition_context: USP10 deubiquitinase enzymatic assay
Activity calls are given as the source filed them. No rule for the calls is given here.
Classes used: T (active), F (inactive)

> print(dat)
                                    compound                        measurement.target  group.label
 1  Cc1nc(-c2ccccc2)sc1-c1nc(-c2ccccc2)ncc1S(=O)(=O)c1ccccc1  Ubiquitin carboxyl-terminal hydrolase 10 (Homo sapiens) (UniProt Q14694)            F
 2       Cc1ccc2nc(CNc3ccc(F)cc3C)cc(=O)n2c1  Ubiquitin carboxyl-terminal hydrolase 10 (Homo sapiens) (UniProt Q14694)            F
 3  COc1ccc(-c2cc3nc([C@H](C)NC(=O)Cc4cccc(F)c4)nn3cn2)cc1  Ubiquitin carboxyl-terminal hydrolase 10 (Homo sapiens) (UniProt Q14694)            F
 4  CCCn1c(=O)c2sccc2n2c(CCC(=O)N3CCc4ccccc4C3)nnc12  Ubiquitin carboxyl-terminal hydrolase 10 (Homo sapiens) (UniProt Q14694)            F
 5  COc1ccc(S(=O)(=O)N2CCc3ccccc32)cc1C(=O)Nc1ccc2[nH]c(=O)[nH]c2c1  Ubiquitin carboxyl-terminal hydrolase 10 (Homo sapiens) (UniProt Q14694)            T
 6  Cn1cc(NC(=O)Nc2cccc(C(F)(F)F)c2)c2ccccc2c1=O  Ubiquitin carboxyl-terminal hydrolase 10 (Homo sapiens) (UniProt Q14694)            T
 7  COc1ccc(C(=O)C(C)OC(=O)c2cccc(S(=O)(=O)Nc3cc([N+](=O)[O-])ccc3OC)c2)c(OC)c1 (stereo not given)  Ubiquitin carboxyl-terminal hydrolase 10 (Homo sapiens) (UniProt Q14694)            F
 8  O=C(Nc1ccccc1-c1nc2ccccc2[nH]1)c1sc2ccccc2c1Cl  Ubiquitin carboxyl-terminal hydrolase 10 (Homo sapiens) (UniProt Q14694)            T
 9  Cc1ccc(NC(=O)Cn2cncc(-c3nc(-c4ccccc4)cs3)c2=O)cc1F  Ubiquitin carboxyl-terminal hydrolase 10 (Homo sapiens) (UniProt Q14694)            T
10  Cn1c(COc2cccc3cccnc23)nnc1SCC(=O)c1ccc(Cl)cc1Cl  Ubiquitin carboxyl-terminal hydrolase 10 (Homo sapiens) (UniProt Q14694)            F
11  Cc1ccc(C2SCC(=O)Nc3c2c(=O)[nH]n3C2CCCCC2)cc1 (stereo not given)  Ubiquitin carboxyl-terminal hydrolase 10 (Homo sapiens) (UniProt Q14694)            T
12  O=c1[nH]c(C2CCN(S(=O)(=O)c3ccc(S(=O)(=O)N4CCOCC4)cc3)CC2)nc2c1nnn2Cc1ccc(F)cc1  Ubiquitin carboxyl-terminal hydrolase 10 (Homo sapiens) (UniProt Q14694)            F
13  O=C(NCc1ccco1)c1ccc(Cn2c(=O)c3sccc3n(Cc3cc(=O)n4ccccc4n3)c2=O)cc1  Ubiquitin carboxyl-terminal hydrolase 10 (Homo sapiens) (UniProt Q14694)            F
14  Cc1ccccc1NC(=O)Cc1csc2nc(-c3ccc(F)cc3)cn12  Ubiquitin carboxyl-terminal hydrolase 10 (Homo sapiens) (UniProt Q14694)            F
15  CSc1nc(N)c2c(n1)N[C@H]1OC[C@H](O)[C@H](O)[C@H]1N2  Ubiquitin carboxyl-terminal hydrolase 10 (Homo sapiens) (UniProt Q14694)            F
16  O=C(Nc1cccc(-c2nc3ncccc3o2)c1)c1ccc([N+](=O)[O-])cc1  Ubiquitin carboxyl-terminal hydrolase 10 (Homo sapiens) (UniProt Q14694)            F
17  O=C(c1ccccc1CN1CCOCC1)N1CCOCC2(C1)CN(c1ccc(F)cc1)C(=O)O2 (stereo not given)  Ubiquitin carboxyl-terminal hydrolase 10 (Homo sapiens) (UniProt Q14694)            F
18  Cc1noc(C)c1COc1cccc(C(=O)Nc2cc(Cl)ccc2-n2cncn2)c1  Ubiquitin carboxyl-terminal hydrolase 10 (Homo sapiens) (UniProt Q14694)            F
19    Cc1ccc(-n2cc(C(=O)NCCCc3ccccc3)nn2)cc1  Ubiquitin carboxyl-terminal hydrolase 10 (Homo sapiens) (UniProt Q14694)            T
20  COc1cc2c(=O)n(CCC(=O)NC3CCCC3)c(=O)n(CC(=O)Nc3cccc(Cl)c3)c2cc1OC  Ubiquitin carboxyl-terminal hydrolase 10 (Homo sapiens) (UniProt Q14694)            T
